System: RXF 393 renal
procedure_summary: NCI tumour cell line growth inhibition, 48 h
So basically: TGI at 20 µM or higher? That is Criterion met. Lower than 20 µM? That is Criterion not met.

[[record]]
compound = "CN(C)C(=S)/N=c1\\ssc(=S)n1Cc1ccco1"
assigned_category = "Criterion not met"

[[record]]
compound = "CN(C)CC1C(=O)O[C@H]2[C@H]1CC/C(COC(=O)NCc1ccc(Cn3c(=O)sn(CCCI)c3=O)cc1)=C\\CC[C@@]1(C)O[C@@H]21 (stereo not given in full)"
assigned_category = "Criterion not met"

[[record]]
compound = "CSC1(C(=O)O)C2CCC3C2CCC31 (stereo not given)"
assigned_category = "Criterion met"

[[record]]
compound = "C[C@@H](CS[As](C)C)C(=O)N1CCC[C@H]1C(=O)O"
assigned_category = "Criterion not met"

[[record]]
compound = "CCCS(=O)c1nc(COC(=O)NC)c(COC(=O)NC)n1C (stereo not given)"
assigned_category = "Criterion met"

[[record]]
compound = "NC(Cc1cccnn1)C(=O)O (stereo not given)"
assigned_category = "Criterion met"

[[record]]
compound = "C=CCc1oc(C)nc1CCCC"
assigned_category = "Criterion met"

[[record]]
compound = "O=C(O/N=c1/ccc(=O)/c(=N\\OC(=O)c2ccccc2)c1=O)c1ccccc1"
assigned_category = "Criterion met"

[[record]]
compound = "CC(C)N1C(C)[C@@H](c2ccccc2)O[P@@]1(=O)CC1=CCCCC1 (stereo not given in full)"
assigned_category = "Criterion met"

[[record]]
compound = "CCCCSc1nc(N)c2cn[nH]c2n1"
assigned_category = "Criterion met"


Prompt: Determine whether this compound has TGI no lower than 20 µM: C=CCSC1=N/C(=C\c2ccc(OC)cc2)C(=O)N1CC=C
Completion: Criterion met

Prompt: Another: Cc1ccc(C(C)C)c(OCC(=O)N/N=C/c2c[nH]c3ccc(Br)cc23)c1
Completion: Criterion not met

###

Tested on: SF-268 CNS
procedure_summary: NCI tumour cell line growth inhibition, 48 h
readout_label: log10 of TGI (log10 of the value in µM)
The common logarithm of TGI in µM is what is listed.

Illustrative cases are given below, each with its answer.
[[record]]
entry_smiles = "CC(=O)c1ccc2c3c1[C@H]1O[C@H]1c1cccc(c1-3)[C@@H]1O[C@H]21"
test_system = "SF-268 CNS"
observed_value = 0.59

[[record]]
entry_smiles = "COC(=O)c1c2c(c(C)[n+]([O-])c1C)C(=O)C(NCc1ccc(F)cc1)=CC2=O"
test_system = "SF-268 CNS"
observed_value = 0.96

[[record]]
entry_smiles = "[Cl][Hg][c]1ccc2ccccc2c1"
test_system = "SF-268 CNS"
observed_value = 0.77


Prompt: Using the record for N#C/C(=C\c1ccc([N+](=O)[O-])o1)c1n[nH]c(Cc2ccccc2)n1 , report its log10 of TGI.
Completion: 0.46

Prompt: Another: N#Cc1c(N)nc(SCc2ccccc2)c(C#N)c1-c1ccc(O)cc1
Completion: 1.83

###

Reported TGI values follow for various molecules
System: SNB-75 CNS
procedure_summary: NCI tumour cell line growth inhibition, 48 h
I only need the number, in µM, no unit after it.

Illustrative cases are given below, each with its answer.
[[record]]
entry_smiles = "O=C1C(Cl)=C(Cl)C(=O)N1c1ccc(F)cc1"
readout_label = "TGI"
unit_tag = "µM"
observed_value = 20.8

[[record]]
entry_smiles = "c1cc(C2CCCCC2)ccc1-c1cnc2nonc2n1"
readout_label = "TGI"
unit_tag = "µM"
observed_value = 1.71


Next item in the queue.
Prompt: Using the record for CSc1nnc(-c2cc3c([nH]c4ccccc43)c(-c3cccc(O)c3)n2)n1-c1ccc(C)cc1 , report its TGI.
Completion: 5.33
